Tested on: WA09 human embryonic stem (hES) cells
assayText: PLS-DA prediction of teratogenicity from secretome of treated hES cells (Example 9)
experimentalSetup: DevTox pharmaceutical, low dose (L = 0.1x circulating dose)
Criterion: % Ter (PLS-DA class probability teratogen) meeting or surpassing 0.4. Met: met. Not met: not met.

• CO[C@H]1/C=C/O[C@@]2(C)Oc3c(C)c(O)c4c(O)c(c(/C=N/N5CCN(C)CC5)c(O)c4c3C2=O)NC(=O)/C(C)=C\C=C\[C@H](C)[C@H](O)[C@@H](C)[C@@H](O)[C@@H](C)[C@H](OC(C)=O)[C@@H]1C = met
• CC1(C)S[C@@H]2[C@H](NC(=O)Cc3ccccc3)C(=O)N2[C@H]1C(=O)O = met
• CS(=O)(=O)OCCCCOS(C)(=O)=O = met
• CC1=C(/C=C/C(C)=C/C=C/C(C)=C\C(=O)O)C(C)(C)CCC1 = met
• O=P1(N(CCCl)CCCl)NCCCO1 (stereo not shown) [Cyclophosphamide] = met
• Cn1c(=O)c2c(ncn2C)n(C)c1=O = met
• CN(C)CCOC(c1ccccc1)c1ccccc1 [Diphenhydramine] = not met
• Cc1ncc(C[n+]2csc(CCO)c2C)c(N)n1 = not met
• CCCC(CCC)C(=O)O = met
• O=c1[nH]cc(F)c(=O)[nH]1 = met
• CC1=C(/C=C/C(C)=C/C=C/C(C)=C/C(=O)O)C(C)(C)CCC1 = met
• O=C1CCC(N2C(=O)c3ccccc3C2=O)C(=O)N1 (stereo not shown) [Thalidomide] = not met
• NC(=O)NO [Hydroxyurea] = not met
• O=C1O[C@H]([C@@H](O)CO)C(O)=C1O = met
• N[C@@H](Cc1cc(I)c(Oc2cc(I)c(O)c(I)c2)c(I)c1)C(=O)O = not met
• O=C1NS(=O)(=O)c2ccccc21 = not met
• CN(Cc1cnc2nc(N)nc(N)c2n1)c1ccc(C(=O)N[C@@H](CCC(=O)O)C(=O)O)cc1 [Methotrexate] = met
• NC(=O)N1c2ccccc2C=Cc2ccccc21 [Carbamazepine] = met
• CN(C)CCOC(C)(c1ccccc1)c1ccccn1 (stereo not shown) = met
• CC1=C(/C=C/C(C)=C/C=C/C(C)=C/CO)C(C)(C)CCC1 = not met
• NNC(=O)c1ccncc1 = not met

====

System: WA09 human embryonic stem (hES) cells
assayText: PLS-DA prediction of teratogenicity from secretome of treated hES cells (Example 9)
experimentalSetup: DevTox pharmaceutical, low dose (L = 0.1x circulating dose)
measurementName: Confidence (difference between class probabilities)

• CN(C)CCOC(C)(c1ccccc1)c1ccccn1 (stereo not drawn) = 0.16
• NNC(=O)c1ccncc1 = 0.52
• CC1=C(/C=C/C(C)=C/C=C/C(C)=C/CO)C(C)(C)CCC1 = 0.5
• Nc1nc2ncc(CNc3ccc(C(=O)N[C@@H](CCC(=O)O)C(=O)O)cc3)nc2c(=O)[nH]1 = 0.18
• CO[C@H]1/C=C/O[C@@]2(C)Oc3c(C)c(O)c4c(O)c(c(/C=N/N5CCN(C)CC5)c(O)c4c3C2=O)NC(=O)/C(C)=C\C=C\[C@H](C)[C@H](O)[C@@H](C)[C@@H](O)[C@@H](C)[C@H](OC(C)=O)[C@@H]1C = 0.08
• CC1=C(/C=C/C(C)=C/C=C/C(C)=C\C(=O)O)C(C)(C)CCC1 = 0.34

====

Test system: WA09 human embryonic stem (hES) cells
assayText: PLS-DA prediction of teratogenicity from secretome of treated hES cells (Example 9)
experimentalSetup: DevTox pharmaceutical, low dose (L = 0.1x circulating dose)
measurementName: Prediction

• NNC(=O)c1ccncc1 = Non
• CC1=C(/C=C/C(C)=C/C=C/C(C)=C\C(=O)O)C(C)(C)CCC1 = Ter
• Nc1nc2ncc(CNc3ccc(C(=O)N[C@@H](CCC(=O)O)C(=O)O)cc3)nc2c(=O)[nH]1 = Non
• O=C1O[C@H]([C@@H](O)CO)C(O)=C1O = Non
• O=c1[nH]cc(F)c(=O)[nH]1 = Ter
• CC1=C(/C=C/C(C)=C/C=C/C(C)=C/CO)C(C)(C)CCC1 = Non
• CS(=O)(=O)OCCCCOS(C)(=O)=O = Ter
• CN(Cc1cnc2nc(N)nc(N)c2n1)c1ccc(C(=O)N[C@@H](CCC(=O)O)C(=O)O)cc1 [Methotrexate] = Ter
• NC(=O)N1c2ccccc2C=Cc2ccccc21 [Carbamazepine] = Non
• O=P1(N(CCCl)CCCl)NCCCO1 (stereo not shown) [Cyclophosphamide] = Ter

====

System: WA09 human embryonic stem (hES) cells
assayText: PLS-DA prediction of teratogenicity from secretome of treated hES cells (Example 9)
experimentalSetup: DevTox pharmaceutical, low dose (L = 0.1x circulating dose)
# Confidence (difference between class probabilities) values compiled below
measurementName: Confidence (difference between class probabilities)

• CN(Cc1cnc2nc(N)nc(N)c2n1)c1ccc(C(=O)N[C@@H](CCC(=O)O)C(=O)O)cc1 [Methotrexate] = 0.04
• CCCC(CCC)C(=O)O = 0.14
• O=C1NS(=O)(=O)c2ccccc21 = 0.5
• CS(=O)(=O)OCCCCOS(C)(=O)=O = 0.42
• NC(=O)NO [Hydroxyurea] = 0.28
• Cc1ncc(C[n+]2csc(CCO)c2C)c(N)n1 = 0.64

====

Test system: WA09 human embryonic stem (hES) cells
assayText: PLS-DA prediction of teratogenicity from secretome of treated hES cells (Example 9)
experimentalSetup: DevTox pharmaceutical, low dose (L = 0.1x circulating dose)
measurementName: Prediction

• CCCC(CCC)C(=O)O = Ter
• CO[C@H]1/C=C/O[C@@]2(C)Oc3c(C)c(O)c4c(O)c(c(/C=N/N5CCN(C)CC5)c(O)c4c3C2=O)NC(=O)/C(C)=C\C=C\[C@H](C)[C@H](O)[C@@H](C)[C@@H](O)[C@@H](C)[C@H](OC(C)=O)[C@@H]1C = Ter
• O=C1NS(=O)(=O)c2ccccc21 = Non
• CN(C)CCOC(C)(c1ccccc1)c1ccccn1 (centres unmarked) = Non
• CC1=C(/C=C/C(C)=C/C=C/C(C)=C/C(=O)O)C(C)(C)CCC1 = Ter

====

System: WA09 human embryonic stem (hES) cells
assayText: PLS-DA prediction of teratogenicity from secretome of treated hES cells (Example 9)
experimentalSetup: DevTox pharmaceutical, high dose (H = 10x circulating dose)
measurementName: % Non (PLS-DA class probability non-teratogen)

* CO[C@H]1/C=C/O[C@@]2(C)Oc3c(C)c(O)c4c(O)c(c(/C=N/N5CCN(C)CC5)c(O)c4c3C2=O)NC(=O)/C(C)=C\C=C\[C@H](C)[C@H](O)[C@@H](C)[C@@H](O)[C@@H](C)[C@H](OC(C)=O)[C@@H]1C | 0.27
* CN(C)CCOC(c1ccccc1)c1ccccc1 [Diphenhydramine] | 0.73
* NC(=O)NO [Hydroxyurea] | 0.32
* O=C1CCC(N2C(=O)c3ccccc3C2=O)C(=O)N1 (stereo not shown) [Thalidomide] | 0.3
* O=C1NS(=O)(=O)c2ccccc21 | 0.8
* NNC(=O)c1ccncc1 | 0.59
* CC1=C(/C=C/C(C)=C/C=C/C(C)=C/C(=O)O)C(C)(C)CCC1 | 0.3
* O=C1O[C@H]([C@@H](O)CO)C(O)=C1O | 0.57
* Nc1nc2ncc(CNc3ccc(C(=O)N[C@@H](CCC(=O)O)C(=O)O)cc3)nc2c(=O)[nH]1 | 0.59
* CS(=O)(=O)OCCCCOS(C)(=O)=O | 0.28
* NC(=O)N1c2ccccc2C=Cc2ccccc21 [Carbamazepine] | 0.37
* CC1=C(/C=C/C(C)=C/C=C/C(C)=C/CO)C(C)(C)CCC1 | 0.65
* CC1=C(/C=C/C(C)=C/C=C/C(C)=C\C(=O)O)C(C)(C)CCC1 | 0.3
* CCCC(CCC)C(=O)O | 0.34
* N[C@@H](Cc1cc(I)c(Oc2cc(I)c(O)c(I)c2)c(I)c1)C(=O)O | 0.59
* CC1(C)S[C@@H]2[C@H](NC(=O)Cc3ccccc3)C(=O)N2[C@H]1C(=O)O | 0.57
* CN(C)CCOC(C)(c1ccccc1)c1ccccn1 (stereo not shown) | 0.38
* CN(Cc1cnc2nc(N)nc(N)c2n1)c1ccc(C(=O)N[C@@H](CCC(=O)O)C(=O)O)cc1 [Methotrexate] | 0.42
* O=P1(N(CCCl)CCCl)NCCCO1 (stereo not shown) [Cyclophosphamide] | 0.45

====

System: WA09 human embryonic stem (hES) cells
assayText: PLS-DA prediction of teratogenicity from secretome of treated hES cells (Example 9)
experimentalSetup: DevTox pharmaceutical, high dose (H = 10x circulating dose)
measurementName: % Ter (PLS-DA class probability teratogen)

- O=P1(N(CCCl)CCCl)NCCCO1 (stereo not drawn) [Cyclophosphamide]: 0.55
- CN(C)CCOC(c1ccccc1)c1ccccc1 [Diphenhydramine]: 0.27
- O=c1[nH]cc(F)c(=O)[nH]1 [5-Fluorouracil]: 0.68
